Reported Ki values, EP4 (Homo sapiens).

# compound, test.system, scale.unit, Ki
measured = [
    ("CCCCCC(=O)c1ccc(N2C(=O)NC(=O)C2CCCc2ccc(C(=O)O)s2)cc1 (stereo not shown)", "EP4 (Homo sapiens)", "µM", 3.24),
    ("CCCCC[C@@H](O)c1ccc(N2C(=O)NC(=O)[C@@H]2CCCc2ccc(C(=O)O)s2)cc1", "EP4 (Homo sapiens)", "µM", 7.21),
    ("CCCCC[C@H](O)c1ccc(N2C(=O)NC(=O)[C@H]2CCCc2ccc(C(=O)O)s2)cc1", "EP4 (Homo sapiens)", "µM", 7.19),
    ("CCCCC[C@H](O)c1ccc(N2C(=O)NC(=O)[C@@H]2CCCc2ccc(C(=O)O)s2)cc1", "EP4 (Homo sapiens)", "µM", 5.07),
]
